test system: Zika virus NS2B-NS3 protease (linked construct); test: 384 well plate NINDS Rhodamine confirmatory qHTS for Zika virus inhibitors (AID 1347164); details: rhodamine-110 peptide substrate fluorescence; series mostly up to 100 µM;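 also: fluorescence from protease cleavage of Ac-LKRR-rhodamine 110 substrate; nearly all actives have a fitted effect of over 65% in size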
Records with an inconclusive call do not appear. Active and inactive are the calls of the source. Calls follow the shape of the dose curve; as a rule, active = well fitted inhibition curve with a large enough effect; inconclusive = small, poorly fitted or top-dose-only effect; inactive = no such curve, though single readings can be large or run the other way.
Thanks in advance; please answer with one of these: y = active, n = inactive

{"compound": "O=C(Nc1ccccc1)Nc1ccc(-c2ccc(C(=O)C3CCCC3C(=O)O)cc2)cc1 (stereo not given)", "classification": "y"}
{"compound": "COc1cc(Nc2nc3ccccc3nc2NS(=O)(=O)c2cccc(NC(=O)c3ccc(C)c(OC)c3)c2)cc(OC)c1", "classification": "n"}
{"compound": "CCOc1ccc(-c2cc(NC(=O)c3c(F)cccc3F)c(C(=O)O)s2)cc1", "classification": "y"}
{"compound": "C/C(=C\\CC/C(C)=C/CC[C@]1(C)CCc2cc(O)cc(C)c2O1)CC/C=C(\\C)C(=O)O", "classification": "y"}
{"compound": "COc1cc(Nc2ccc([N+](=O)[O-])cc2C(=O)O)cc2ccccc12", "classification": "y"}

Query :: What classification did "O=C1NC(=O)/C(=C/c2cccc(C(F)(F)F)c2)S1" end up with in this test?
Result :: y

Query :: Test call, this compound: C=C1C2CCC3CC2(CC(O)C2(O)C1CC(OC1OC(CO)C(O)C(O)C1O)C2(C)C)CC3(C)O (stereo not given)
Result :: y

Query :: For this compound, state the assay outcome: "Cc1ccccc1NC(=O)Nc1ccc(CN2C(=O)N([C@@H](CC(C)C)C(=O)N[C@@H](CC(=O)O)c3ccccc3)C(=O)C2(C)C)cc1"
Result :: n

Query :: Name the outcome recorded for CC(C)CC(c1c(O)c(C=O)c(O)c(C=O)c1O)C1CCC(C)(O)C2CC(C(C)(C)O)CCC12C (stereo not given) in the assay.
Result :: y

Query :: Which result was noted for this compound in the test: Cc1ccc2[nH]c(=O)c(C3=NN(C(=O)CCC(=O)O)C(c4ccc(Br)cc4)C3)c(-c3ccccc3)c2c1 (stereo not given)
Result :: n

Query :: What call does the record list for O=C(O)CC1CCC(c2ccc(-c3ccc(Nc4ccc(C(F)(F)F)nc4)cn3)cc2)CC1 (stereo not given) ?
Result :: n

* * *

test system: Nanoluciferase (engineered Oplophorus gracilirostris luciferase); test: Primary Nanoluciferase (NLuc) qHTS assay for identification of artifact compounds. (AID 1845222); settings: NLuc-conditioned medium, Nano-Glo luminescence, 5 min; series mostly up to 54.1 µM;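 also: NLuc secreted into diluted conditioned medium of S16 cells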
Calls of active or inactive are those of the source. The call rests on the fitted dose curve; in most records, active means well fitted inhibition curve with a large enough effect; inconclusive means small, poorly fitted or top-dose-only effect; inactive means flat fitted curve, though single readings scatter.
recordedEndpoint: activity, negative = inhibition

{"compound": "Cn1cc(CCn2cnc(-c3cnn(C)c3)c2-c2ccc(C#N)cc2)cn1", "activity, negative = inhibition": "inactive"}
{"compound": "COC(=O)C1=COC(OC2OC(CO)C(O)C(O)C2O)C2C(COC(=O)/C=C/c3ccc(O)cc3)C(O)C(O)C12 (stereo not given)", "activity, negative = inhibition": "inactive"}
{"compound": "CCCc1[nH]nc2c1C(c1cc(Cl)cc(Cl)c1O)C(C#N)=C(N)O2 (stereo not given)", "activity, negative = inhibition": "inactive"}
{"compound": "CNC(=O)c1ccc2c(c1)CCO[C@H]2CCN1CCN(c2ccc(C(N)=O)cc2)CC1", "activity, negative = inhibition": "inactive"}
{"compound": "Cc1ccc(-n2nc(C(C)(C)C)cc2NC(=O)Nc2cc(COc3cccnc3)[nH]n2)cc1", "activity, negative = inhibition": "inactive"}
{"compound": "OC[C@H]1O[C@@H](OCc2ccccc2)[C@H](O)[C@@H](O)[C@@H]1O", "activity, negative = inhibition": "inactive"}

Query :: Data request, read-out activity, negative = inhibition, for "C[C@@H]1O[C@@H](O[C@H]2[C@@H]3C=CO[C@@H](O[C@@H]4O[C@H](CO)[C@@H](O)[C@H](O)[C@H]4O)[C@@H]3[C@@]3(CO)O[C@@H]23)[C@H](OC(=O)/C=C/c2ccc(O)cc2)[C@H](O)[C@H]1O"
Result :: inactive

Query :: Report activity, negative = inhibition for C=CC(C)(CCC=C(C)C)O[C@@H]1O[C@H](CO)[C@@H](O)[C@H](O)[C@H]1O (stereo not given in full) please.
Result :: inactive

Query :: So what does the record say about activity, negative = inhibition for C/C=C/C1OC2=C(C(=O)OC2(C)O)C(O)C1O (stereo not given) ?
Result :: inactive

Query :: Give the measured activity, negative = inhibition of CC(=O)C1CCC(=O)N1Cc1ccccc1 (stereo not given) .
Result :: inactive
